Data provenance: ChEMBL document CHEMBL5126625

# target.of.assay: Myeloperoxidase (Homo sapiens)
# Sequence (P05164 165-273 limits assumed): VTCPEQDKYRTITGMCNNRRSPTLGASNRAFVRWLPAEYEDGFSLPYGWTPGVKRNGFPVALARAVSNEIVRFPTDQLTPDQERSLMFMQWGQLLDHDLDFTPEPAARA
# Sequence (P05164 279-745 limits assumed): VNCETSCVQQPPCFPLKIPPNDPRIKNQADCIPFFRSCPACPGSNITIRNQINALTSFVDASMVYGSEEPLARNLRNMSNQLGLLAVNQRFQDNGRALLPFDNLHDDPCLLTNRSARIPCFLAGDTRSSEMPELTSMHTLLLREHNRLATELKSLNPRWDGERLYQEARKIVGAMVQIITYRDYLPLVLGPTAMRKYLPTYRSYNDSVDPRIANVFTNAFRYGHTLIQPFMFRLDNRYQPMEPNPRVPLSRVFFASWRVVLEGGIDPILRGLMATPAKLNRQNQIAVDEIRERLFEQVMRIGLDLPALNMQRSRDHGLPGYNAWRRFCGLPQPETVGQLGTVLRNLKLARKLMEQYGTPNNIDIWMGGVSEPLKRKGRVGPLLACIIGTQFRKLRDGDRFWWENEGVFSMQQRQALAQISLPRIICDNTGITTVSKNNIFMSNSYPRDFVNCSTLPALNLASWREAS
# protocol.notes: Inhibition of MPO in human HL-60 cells measured after 15 mins in presence of H2O2 by chemiluminescence assay
# Assay type: cell-based
For each entry below, report its log10(IC50) value.
Scale type: logarithmic (base 10). Underlying IC50 unit: µM.

Below, each entry is followed by its recorded log10(IC50) result.
compound: CC(=O)NCc1cc(Cl)ccc1Cn1c(=S)[nH]c(=O)c2[nH]ccc21
log10(IC50): 1.20
//
compound: CC(C)NCc1ccccc1Cn1c(=S)[nH]c(=O)c2[nH]cnc21
log10(IC50): 1.90
//
compound: CNCc1cc(Cl)ccc1Cn1c(=S)[nH]c(=O)c2[nH]ccc21
log10(IC50): 0.82
//
compound: CN[C@H](C)c1cc(Cl)ccc1Cn1c(=S)[nH]c(=O)c2[nH]ccc21 (racemic)
log10(IC50): 0.66

We next turn to a different compound, shown below.
Readout log10(IC50) for CNCc1c(Cl)cccc1Cn1c(=S)[nH]c(=O)c2[nH]ccc21 , test system Myeloperoxidase (Homo sapiens), was 0.97

====

For each entry below, report its IC50 value.
# target.of.assay: Thyroid peroxidase (Homo sapiens, UniProt P07202)
# protocol.notes: Inhibition of human recombinant TPO (1 to 839 residues) expressed in baculovirus-infected insect cells measured after 15 mins in presence of H2O2 by chemiluminescence assay
Answers are plain numbers, in nM.

Below, each entry is followed by its recorded IC50 result.
molecule: O=c1[nH]c(=S)n(Cc2ccccc2CN2CCC2)c2cc[nH]c12
result.units: nM
measured.number: 1500
//
molecule: NC(c1ccccc1)c1ccccc1Cn1c(=S)[nH]c(=O)c2[nH]ccc21 (centres undefined)
result.units: nM
measured.number: 1390
//
molecule: C[C@H](N)c1cc(Cl)ccc1Cn1c(=S)[nH]c(=O)c2[nH]ccc21
result.units: nM
measured.number: 1100

We next turn to a different molecule, shown below.
Short answer for CN[C@H](C)c1cc(Cl)ccc1Cn1c(=S)[nH]c(=O)c2[nH]ccc21 (racemic) : IC50 was 1100

====

# target.of.assay: Myeloperoxidase (Homo sapiens)
# protocol.notes: Inhibition of MPO (unknown origin) measured after 15 mins in presence of H2O2 by chemiluminescence assay
recorded.metric: IC50 (nM)
One number for each entry, in nM.

Go through the items and report each one's IC50.
1. O=c1[nH]c(=S)n(Cc2ccccc2CN2CCC2)c2cc[nH]c12
2. CNCc1ccc(Cl)cc1Cn1c(=S)[nH]c(=O)c2[nH]ccc21
3. CC(=O)NCc1cc(Cl)ccc1Cn1c(=S)[nH]c(=O)c2[nH]ccc21
4. O=c1[nH]c(=S)n(C[C@H]2CCCO2)c2nc[nH]c12
5. CNCc1cc(Cl)ccc1Cn1c(=S)[nH]c(=O)c2[nH]ccc21
6. CNCc1c(Cl)cccc1Cn1c(=S)[nH]c(=O)c2[nH]ccc21

1: 15.1; 2: 27.1; 3: 140; 4: 279; 5: 15.9; 6: 39.3

====

Below are pIC50 values recorded for UniProt:Q12809.
Sequence (Q12809 whole entry): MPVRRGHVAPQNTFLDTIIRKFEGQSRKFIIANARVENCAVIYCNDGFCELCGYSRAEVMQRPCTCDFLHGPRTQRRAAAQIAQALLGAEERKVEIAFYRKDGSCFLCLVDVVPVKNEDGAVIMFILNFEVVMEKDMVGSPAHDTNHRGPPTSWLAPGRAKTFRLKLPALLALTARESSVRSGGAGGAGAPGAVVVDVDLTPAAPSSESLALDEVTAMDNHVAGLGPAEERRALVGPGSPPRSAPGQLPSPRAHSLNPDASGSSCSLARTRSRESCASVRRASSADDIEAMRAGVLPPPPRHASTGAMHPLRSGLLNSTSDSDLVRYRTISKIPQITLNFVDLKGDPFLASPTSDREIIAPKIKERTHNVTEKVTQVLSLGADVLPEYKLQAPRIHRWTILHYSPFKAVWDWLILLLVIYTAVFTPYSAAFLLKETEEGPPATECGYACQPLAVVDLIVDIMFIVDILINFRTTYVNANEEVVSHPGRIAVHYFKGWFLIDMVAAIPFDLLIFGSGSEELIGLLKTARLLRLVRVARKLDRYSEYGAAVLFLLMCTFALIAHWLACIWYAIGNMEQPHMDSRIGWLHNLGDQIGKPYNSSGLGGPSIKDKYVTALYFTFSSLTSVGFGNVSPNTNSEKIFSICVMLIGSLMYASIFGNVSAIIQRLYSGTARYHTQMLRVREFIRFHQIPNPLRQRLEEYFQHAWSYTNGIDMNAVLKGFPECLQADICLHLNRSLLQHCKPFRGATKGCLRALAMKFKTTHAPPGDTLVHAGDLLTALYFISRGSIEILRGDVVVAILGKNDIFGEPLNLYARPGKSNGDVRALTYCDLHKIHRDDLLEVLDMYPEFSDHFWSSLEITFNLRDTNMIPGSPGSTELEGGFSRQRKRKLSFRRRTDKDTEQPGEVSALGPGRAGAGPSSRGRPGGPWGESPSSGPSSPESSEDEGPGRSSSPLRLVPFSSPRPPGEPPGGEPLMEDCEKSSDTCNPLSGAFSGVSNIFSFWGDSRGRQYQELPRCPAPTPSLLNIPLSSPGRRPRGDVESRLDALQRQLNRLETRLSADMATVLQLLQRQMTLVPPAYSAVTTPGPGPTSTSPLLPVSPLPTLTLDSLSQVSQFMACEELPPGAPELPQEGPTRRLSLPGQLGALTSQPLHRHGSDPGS
Numbers only, as −log10 of the molar value.

line.notation: CNCc1cc(Cl)ccc1Cn1c(=S)[nH]c(=O)c2[nH]ccc21
pIC50: 5.00

Short answer for C[C@@H](N)c1cc(Cl)ccc1Cn1c(=S)[nH]c(=O)c2[nH]ccc21 : pIC50 was 4.68

====

Below are IC50 values recorded for Cytochrome P450 2D6 (Homo sapiens, UniProt P10635).

line.notation: C[C@@H](N)c1cc(Cl)ccc1Cn1c(=S)[nH]c(=O)c2[nH]ccc21
IC50: > 30 µM

We next turn to a different compound, shown below.
Short answer for NCc1cc(Cl)ccc1Cn1c(=S)[nH]c(=O)c2[nH]ccc21 : IC50 was > 30 µM

====

# target.of.assay: Cytochrome P450 2C9 (Homo sapiens)
# Sequence (P11712 whole entry): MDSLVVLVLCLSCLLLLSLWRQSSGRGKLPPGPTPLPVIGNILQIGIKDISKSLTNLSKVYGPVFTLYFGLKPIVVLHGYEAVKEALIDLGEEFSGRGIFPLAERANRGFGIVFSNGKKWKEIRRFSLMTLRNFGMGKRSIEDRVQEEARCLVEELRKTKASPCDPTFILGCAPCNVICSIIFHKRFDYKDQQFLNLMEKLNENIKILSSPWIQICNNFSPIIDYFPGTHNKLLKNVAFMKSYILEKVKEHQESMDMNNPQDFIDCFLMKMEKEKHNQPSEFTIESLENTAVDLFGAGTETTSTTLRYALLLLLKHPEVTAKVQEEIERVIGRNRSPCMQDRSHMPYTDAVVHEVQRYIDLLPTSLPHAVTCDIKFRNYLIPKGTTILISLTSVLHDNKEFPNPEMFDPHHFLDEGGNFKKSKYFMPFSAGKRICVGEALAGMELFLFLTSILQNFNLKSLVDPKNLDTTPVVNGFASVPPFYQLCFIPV
# protocol.notes: Inhibition of human recombinant CYP2C9 using coumarin as substrate preincubated with enzyme for 10 mins followed by NADPH addition and measured after 20 to 50 mins by fluorescence based method
pIC50: −log10 of the molar value.
For each entry below, report its pIC50 value.

line.notation: NCc1cc(Cl)ccc1Cn1c(=S)[nH]c(=O)c2[nH]ccc21
recorded.metric: pIC50
result: < 4.52

We next turn to a different compound, shown below.
Short answer for C[C@@H](N)c1cc(Cl)ccc1Cn1c(=S)[nH]c(=O)c2[nH]ccc21 : pIC50 was < 4.52

====

# protocol.notes: Oral bioavailability in Beagle dog measured up to 24 hrs by LC-MS/MS analysis
# Type: ADME, organism-based, Canis lupus familiaris
# measurement.setup: in vivo
recorded.metric: bioavailability (%)
One number for each entry, in %.

line.notation: NCc1cc(Cl)ccc1Cn1c(=S)[nH]c(=O)c2[nH]ccc21
bioavailability / %: 45

line.notation: CNCc1cc(Cl)ccc1Cn1c(=S)[nH]c(=O)c2[nH]ccc21
bioavailability / %: 72

We next turn to a different compound, shown below.
Short answer for C[C@@H](N)c1cc(Cl)ccc1Cn1c(=S)[nH]c(=O)c2[nH]ccc21 : bioavailability was 52

====

# protocol.notes: Lipophilicity, log D of the compound
# measurement.setup: octanol/water
// returns criterion not met unless logD is strictly below 1, in which case criterion met

Example entries begin here.
compound: NC(c1ccccc1)c1ccccc1Cn1c(=S)[nH]c(=O)c2[nH]ccc21 (configuration not stated)
category.label: criterion not met

compound: CC(C)NCc1ccccc1Cn1c(=S)[nH]c(=O)c2[nH]cnc21
category.label: criterion met

compound: CC(=O)NCc1cc(Cl)ccc1Cn1c(=S)[nH]c(=O)c2[nH]ccc21
category.label: criterion not met

Here's an entry: NCc1cc(Cl)ccc1Cn1c(=S)[nH]c(=O)c2[nH]ccc21 . Is its logD below 1?
criterion not met

Here's an entry: C[C@H](N)c1cc(Cl)ccc1Cn1c(=S)[nH]c(=O)c2[nH]ccc21 . Is its logD below 1?
criterion not met

====

# target.of.assay: Cytochrome P450 2C19 (Homo sapiens, UniProt P33261)
# Sequence (P33261 whole entry): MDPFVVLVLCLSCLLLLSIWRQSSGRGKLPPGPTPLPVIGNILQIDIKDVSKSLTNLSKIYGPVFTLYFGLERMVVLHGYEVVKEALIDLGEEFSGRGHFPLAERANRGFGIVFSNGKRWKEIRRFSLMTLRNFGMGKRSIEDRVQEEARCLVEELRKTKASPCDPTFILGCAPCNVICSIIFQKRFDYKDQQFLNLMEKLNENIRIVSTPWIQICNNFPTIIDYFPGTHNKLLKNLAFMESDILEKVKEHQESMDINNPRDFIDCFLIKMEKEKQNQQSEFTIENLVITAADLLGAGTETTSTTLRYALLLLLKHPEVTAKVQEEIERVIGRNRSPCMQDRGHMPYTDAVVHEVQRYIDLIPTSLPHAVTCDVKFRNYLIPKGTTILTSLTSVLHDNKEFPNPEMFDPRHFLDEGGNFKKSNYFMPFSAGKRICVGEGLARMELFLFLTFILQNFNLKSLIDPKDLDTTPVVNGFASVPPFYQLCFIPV
# protocol.notes: Inhibition of human recombinant CYP2C19 using coumarin as substrate preincubated with enzyme for 10 mins followed by NADPH addition and measured after 20 to 50 mins by fluorescence based method
For each entry below, report its IC50 value.

line.notation: C[C@@H](N)c1cc(Cl)ccc1Cn1c(=S)[nH]c(=O)c2[nH]ccc21
target.of.assay: Cytochrome P450 2C19 (Homo sapiens, UniProt P33261)
IC50: > 30 µM

Short answer for NCc1cc(Cl)ccc1Cn1c(=S)[nH]c(=O)c2[nH]ccc21 : IC50 was > 30 µM

====

# target.of.assay: Thyroid peroxidase (Homo sapiens, UniProt P07202)
# Sequence (P07202 whole entry): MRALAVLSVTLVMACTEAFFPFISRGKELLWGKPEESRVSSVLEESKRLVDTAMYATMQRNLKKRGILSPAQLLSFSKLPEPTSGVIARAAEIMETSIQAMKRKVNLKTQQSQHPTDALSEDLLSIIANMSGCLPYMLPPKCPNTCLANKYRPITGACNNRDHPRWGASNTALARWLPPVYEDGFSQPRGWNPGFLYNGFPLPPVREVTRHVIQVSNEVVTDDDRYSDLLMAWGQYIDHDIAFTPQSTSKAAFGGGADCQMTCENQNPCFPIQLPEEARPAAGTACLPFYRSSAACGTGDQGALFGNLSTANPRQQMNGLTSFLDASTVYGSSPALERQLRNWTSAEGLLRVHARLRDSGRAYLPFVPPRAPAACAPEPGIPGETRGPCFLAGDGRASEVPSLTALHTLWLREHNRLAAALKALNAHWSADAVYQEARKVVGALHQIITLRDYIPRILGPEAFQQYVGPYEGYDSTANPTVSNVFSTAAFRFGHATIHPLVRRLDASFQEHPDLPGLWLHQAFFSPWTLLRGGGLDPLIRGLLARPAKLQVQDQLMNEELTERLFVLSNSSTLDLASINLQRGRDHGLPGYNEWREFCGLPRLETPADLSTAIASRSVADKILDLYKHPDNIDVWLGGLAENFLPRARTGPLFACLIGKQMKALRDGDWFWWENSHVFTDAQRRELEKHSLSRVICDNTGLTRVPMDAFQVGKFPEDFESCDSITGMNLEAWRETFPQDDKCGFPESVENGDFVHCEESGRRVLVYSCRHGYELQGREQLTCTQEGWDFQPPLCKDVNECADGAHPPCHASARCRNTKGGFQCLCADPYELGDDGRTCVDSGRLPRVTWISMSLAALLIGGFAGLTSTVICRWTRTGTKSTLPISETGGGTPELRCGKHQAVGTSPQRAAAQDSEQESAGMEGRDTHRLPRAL
# protocol.notes: Inhibition of human recombinant TPO (1 to 839 residues) expressed in baculovirus-infected insect cells measured after 15 mins in presence of H2O2 by chemiluminescence assay
recorded.metric: IC50 (nM)
Give bare numbers, in nM.

line.notation: CNCc1cc(Cl)ccc1Cn1c(=S)[nH]c(=O)c2[nH]ccc21
target.of.assay: Thyroid peroxidase (Homo sapiens, UniProt P07202)
result.units: nM
IC50: 2100

line.notation: CNCc1ccc(Cl)cc1Cn1c(=S)[nH]c(=O)c2[nH]ccc21
target.of.assay: Thyroid peroxidase (Homo sapiens, UniProt P07202)
result.units: nM
IC50: 1900

line.notation: CC(C)NCc1ccccc1Cn1c(=S)[nH]c(=O)c2[nH]cnc21
target.of.assay: Thyroid peroxidase (Homo sapiens, UniProt P07202)
result.units: nM
IC50: 4200

Go through the items and report each one's IC50.
1. O=c1[nH]c(=S)n(Cc2ccc(F)cc2)c2nc[nH]c12
2. COc1ccc(Cl)cc1-c1cc(=O)[nH]c(=S)n1CC(N)=O
3. O=c1[nH]c(=S)n(C[C@H]2CCCO2)c2nc[nH]c12
4. CNCc1c(Cl)cccc1Cn1c(=S)[nH]c(=O)c2[nH]ccc21
5. NCc1cc(Cl)ccc1Cn1c(=S)[nH]c(=O)c2[nH]ccc21
6. CC(C)NCc1ccccc1Cn1c(=S)[nH]c(=O)c2[nH]ccc21
7. C[C@@H](N)c1cc(Cl)ccc1Cn1c(=S)[nH]c(=O)c2[nH]cnc21
8. CC(=O)NCc1cc(Cl)ccc1Cn1c(=S)[nH]c(=O)c2[nH]ccc21

1: 590; 2: 990; 3: 2400; 4: 4200; 5: 1300; 6: 8100; 7: 770; 8: 1400
